System Under Test: T1, human IL-11Rα on transfected cells (human, UniProt Q14626 23-422)
T1 sequence: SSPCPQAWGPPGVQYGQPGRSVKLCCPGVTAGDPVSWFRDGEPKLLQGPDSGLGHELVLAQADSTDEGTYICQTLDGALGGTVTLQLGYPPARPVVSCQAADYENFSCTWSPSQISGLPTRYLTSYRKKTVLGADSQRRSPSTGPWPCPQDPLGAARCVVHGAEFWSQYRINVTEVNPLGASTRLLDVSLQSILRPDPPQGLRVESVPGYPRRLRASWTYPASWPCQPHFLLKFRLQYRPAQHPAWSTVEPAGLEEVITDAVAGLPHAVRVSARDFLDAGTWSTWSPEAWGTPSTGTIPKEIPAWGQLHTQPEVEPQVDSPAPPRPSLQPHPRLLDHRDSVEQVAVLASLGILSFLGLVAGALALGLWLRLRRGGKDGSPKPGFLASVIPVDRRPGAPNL
Procedure Details: cell-based or functional assay
Each record here notes measured Fold increase in potency relative to 8E2.
Value Type: Fold increase in potency relative to 8E2 (fold)

binder="hu8E2-TS-310 (antibody, V domains shown) VH: EVQLLESGGGLVQPGGSLRLSCAASGFTFSWYSMTWVRQAPGKGLEWVSSIVPSGGHTQYADSVKGRFTISRDNSKNTLYLQMNSLRAEDTAVYYCAKGPGWGSFDLWGRGTLVTVSS VL: DIQMTQSPSSLSASVGDRVTITCQASQDVAMYIEWYQQKPGKAPKLLIYDASNLQTGVPSRFSGSGSGTDFTFTISSLQPEDIATYYCQQYDNLSPTFGPGTKVDIK" reported=0.4
binder="hu8E2-TS-312 (antibody, V domains shown) VH: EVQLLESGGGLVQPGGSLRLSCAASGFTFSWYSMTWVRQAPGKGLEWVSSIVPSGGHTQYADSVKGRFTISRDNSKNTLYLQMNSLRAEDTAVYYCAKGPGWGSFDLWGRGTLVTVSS VL: DIQMTQSPSSLSASVGDRVTITCQASQDIGQYVEWYQQKPGKAPKLLIYDASNLQTGVPSRFSGSGSGTDFTFTISSLQPEDIATYYCQQYDNLSPTFGPGTKVDIK" reported=1.2
binder="hu8E2-TS-58 (antibody, V domains shown) VH: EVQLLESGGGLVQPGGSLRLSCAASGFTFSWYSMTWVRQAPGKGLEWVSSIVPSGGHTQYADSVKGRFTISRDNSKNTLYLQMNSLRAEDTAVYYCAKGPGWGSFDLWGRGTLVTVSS VL: DIQMTQSPSSLSASVGDRVTITCQASQDINNYLNWYQQKPGKAPKLLIYDASNLQTGVPSRFSGSGSGTDFTFTISSLQPEDIATYYCQQYETQQPFFGPGTKVDIK" reported=6
binder="hu8E2-TS-2 (antibody, V domains shown) VH: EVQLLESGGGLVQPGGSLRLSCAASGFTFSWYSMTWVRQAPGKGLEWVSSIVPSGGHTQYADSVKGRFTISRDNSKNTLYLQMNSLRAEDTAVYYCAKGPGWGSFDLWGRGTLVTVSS VL: DIQMTQSPSSLSASVGDRVTITCQASQDINNYLNWYQQKPGKAPKLLIYDASNLQTGVPSRFSGSGSGTDFTFTISSLQPEDIATYYCQQAEDQSPTFGPGTKVDIK" reported=7.9
